These entries and their values trace back to patent US20070128217A1.

The reader will find reported Binding of serum London to linear peptides of protein E of SARS-CoV Urbani values listed item by item below.
System: antibodies in sera from SARS patients (sera 1a, 1b, 2, 6, 37, 62, London, SARS-yellow, SARS-green)
Type: binding, human
Experimental endpoint: Binding of serum London to linear peptides of protein E of SARS-CoV Urbani

# Sequence input, Measured number
records = [
    ("AFVVFLLVTLAILTA", 0.6),
    ("LAILTALRLCAYCCN", 0.5),
    ("EETGTLIVNSVLLFL", 0.5),
    ("LVTLAILTALRLCAY", 0.5),
    ("YSFVSEETGTLIVNS", 0.7),
    ("LTALRLCAYCCNIVN", 0.5),
]
